Source of measurements: ChEMBL document CHEMBL1146223

Consider compounds characterized by their Ki with Sodium-dependent serotonin transporter (Rattus norvegicus).
Sequence (P31652 whole entry): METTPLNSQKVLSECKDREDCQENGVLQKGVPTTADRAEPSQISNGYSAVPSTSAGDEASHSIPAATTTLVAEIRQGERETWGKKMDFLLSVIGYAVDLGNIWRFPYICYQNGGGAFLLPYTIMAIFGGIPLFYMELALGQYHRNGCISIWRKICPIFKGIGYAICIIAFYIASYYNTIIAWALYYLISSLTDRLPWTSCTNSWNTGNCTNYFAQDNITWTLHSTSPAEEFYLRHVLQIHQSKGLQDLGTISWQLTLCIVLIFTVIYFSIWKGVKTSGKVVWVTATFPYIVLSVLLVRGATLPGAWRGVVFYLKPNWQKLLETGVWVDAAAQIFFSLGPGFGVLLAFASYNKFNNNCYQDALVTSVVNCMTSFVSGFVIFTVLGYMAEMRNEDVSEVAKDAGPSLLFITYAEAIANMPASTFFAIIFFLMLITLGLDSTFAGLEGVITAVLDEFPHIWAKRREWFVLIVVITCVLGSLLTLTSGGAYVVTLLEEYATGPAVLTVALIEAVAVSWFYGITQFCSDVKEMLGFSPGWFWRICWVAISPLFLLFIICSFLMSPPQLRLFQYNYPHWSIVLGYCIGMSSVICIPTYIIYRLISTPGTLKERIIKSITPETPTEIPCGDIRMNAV
property: Ki (nM)

Cc1ccc([C@H]2C[C@@H]3CC[C@H]([C@H]2c2ncc(-c4cccc([N+](=O)[O-])c4)s2)N3C)cc1	10000
CN1[C@H]2CC[C@@H]1[C@@H](c1ncc(-c3ccc([N+](=O)[O-])cc3)s1)[C@@H](c1ccc(Cl)cc1)C2	980
CN1[C@H]2CC[C@@H]1[C@@H](c1ncc(-c3ccc(Cl)c(Cl)c3)s1)[C@@H](c1ccc(Cl)cc1)C2	380
Cc1ccc([C@H]2C[C@@H]3CC[C@H]([C@H]2c2ncc(-c4ccc(Cl)c(Cl)c4)s2)N3C)cc1	190

====

pKi: −log10 of the molar value.
Reported values: pKi for Sodium-dependent serotonin transporter (Rattus norvegicus), one per item.
property: pKi

Cc1ccc([C@H]2C[C@@H]3CC[C@H]([C@H]2c2ncc(-c4cccc(Br)c4)s2)N3C)cc1	6.51
COc1ccc(-c2cnc([C@H]3[C@@H](c4ccc(Cl)cc4)C[C@@H]4CC[C@H]3N4C)s2)cc1OC	5.82
CN1[C@H]2CC[C@@H]1[C@@H](c1ncc(-c3cccc(Br)c3)s1)[C@@H](c1ccc(Cl)cc1)C2	6.55
CN1[C@H]2CC[C@@H]1[C@@H](c1ncc(-c3ccc(F)cc3)s1)[C@@H](c1ccc(Cl)cc1)C2	6.43
Cc1ccc([C@H]2C[C@@H]3CC[C@H]([C@H]2c2ncc(-c4ccc(Cl)cc4)s2)N3C)cc1	5.95
CN1[C@H]2CC[C@@H]1[C@@H](c1ncc(-c3ccc(Cl)cc3)s1)[C@@H](c1ccc(Cl)cc1)C2	6.04
COc1ccc(-c2cnc([C@H]3[C@@H](c4ccc(Cl)cc4)C[C@@H]4CC[C@H]3N4C)s2)cc1	6.10

====

- assay target: UniProtKB P31645
- Sequence (P31645 whole entry): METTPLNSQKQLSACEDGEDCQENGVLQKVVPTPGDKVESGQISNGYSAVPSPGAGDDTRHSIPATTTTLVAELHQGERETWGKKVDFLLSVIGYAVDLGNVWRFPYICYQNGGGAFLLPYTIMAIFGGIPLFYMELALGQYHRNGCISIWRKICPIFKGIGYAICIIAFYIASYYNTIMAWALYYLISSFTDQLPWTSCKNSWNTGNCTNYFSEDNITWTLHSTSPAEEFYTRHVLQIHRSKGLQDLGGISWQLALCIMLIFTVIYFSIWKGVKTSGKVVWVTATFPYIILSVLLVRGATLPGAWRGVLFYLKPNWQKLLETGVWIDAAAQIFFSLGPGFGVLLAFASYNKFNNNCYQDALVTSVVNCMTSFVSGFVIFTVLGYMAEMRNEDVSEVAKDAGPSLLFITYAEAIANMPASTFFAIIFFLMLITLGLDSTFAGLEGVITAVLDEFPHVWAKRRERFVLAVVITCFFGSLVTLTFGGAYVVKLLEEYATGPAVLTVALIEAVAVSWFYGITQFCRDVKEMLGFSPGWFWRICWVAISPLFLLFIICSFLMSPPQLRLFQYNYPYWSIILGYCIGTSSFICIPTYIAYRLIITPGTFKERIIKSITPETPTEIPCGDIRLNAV
- test summary: Inhibition of human SERT in HEK cells assessed as [3H]serotonin reuptake
// assign yes if IC50 falls strictly below 3 µM, else no (ties count as no)

CN1[C@H]2CC[C@@H]1[C@@H](c1ncc(-c3ccc(Cl)cc3)s1)[C@@H](c1ccc(Cl)cc1)C2	no
CN1[C@H]2CC[C@@H]1[C@@H](c1ncc(-c3ccc(Br)cc3)s1)[C@@H](c1ccc(Cl)cc1)C2	no
Cc1ccc([C@H]2C[C@@H]3CC[C@H]([C@H]2c2ncc(-c4ccc(Cl)cc4)s2)N3C)cc1	yes
Cc1ccc([C@H]2C[C@@H]3CC[C@H]([C@H]2c2ncc(-c4ccc([N+](=O)[O-])cc4)s2)N3C)cc1	no
CN1[C@H]2CC[C@@H]1[C@@H](c1ncc(-c3ccc([N+](=O)[O-])cc3)s1)[C@@H](c1ccc(Cl)cc1)C2	no
CN1[C@H]2CC[C@@H]1[C@@H](c1ncc(-c3ccc(Cl)c(Cl)c3)s1)[C@@H](c1ccc(Cl)cc1)C2	no
CN1[C@H]2CC[C@@H]1[C@@H](c1ncc(-c3ccccc3)s1)[C@@H](c1ccc(Cl)cc1)C2	yes
Cc1ccc([C@H]2C[C@@H]3CC[C@H]([C@H]2c2ncc(-c4ccc(F)cc4)s2)N3C)cc1	no

====

The compounds below have reported Ki for Sodium-dependent dopamine transporter (Homo sapiens).
property: Ki (nM)

COc1ccc(-c2cnc([C@H]3[C@@H](c4ccc(Cl)cc4)C[C@@H]4CC[C@H]3N4C)s2)cc1	8.6
CN1[C@H]2CC[C@@H]1[C@@H](c1ncc(-c3ccc([N+](=O)[O-])cc3)s1)[C@@H](c1ccc(Cl)cc1)C2	6.1
Cc1ccc([C@H]2C[C@@H]3CC[C@H]([C@H]2c2ncc(-c4ccc(Cl)c(Cl)c4)s2)N3C)cc1	105
COc1ccc(-c2cnc([C@H]3[C@@H](c4ccc(C)cc4)C[C@@H]4CC[C@H]3N4C)s2)cc1	53
CN1[C@H]2CC[C@@H]1[C@@H](c1ncc(-c3cccc([N+](=O)[O-])c3)s1)[C@@H](c1ccc(Cl)cc1)C2	7.7
CN1[C@H]2CC[C@@H]1[C@@H](c1ncc(-c3ccc(Cl)c(Cl)c3)s1)[C@@H](c1ccc(Cl)cc1)C2	66
Cc1ccc([C@H]2C[C@@H]3CC[C@H]([C@H]2c2ncc(-c4cccc(Br)c4)s2)N3C)cc1	12
